- Assay: In vitro human microsomal stability assay
- Type: in vitro ADME
- Conditions Used: human, 0.5 h, 0.5 μM, pH 7.4
Readout: HUMAN MICROSOMAL STABILITY (% REMAINING AFTER 30 MINUTES) (%)
Give the value, in units of %, as a plain number.

Solved entries (count: 5):
1) O[C@H](c1ccccn1)C1(c2ccc(Cl)c(Cl)c2)CCC1 [Example 26]    6.3
2) OC(c1ccccn1)C1(c2cccc(C(F)(F)F)c2)CC(F)(F)C1 (centres unmarked) [Example 113]    24
3) OC(c1ccccn1)C1(C2=CCCC(C(F)(F)F)C2)CCC1 (centres unmarked) [Example 261]    0.01
4) OC(c1ccccn1)C1(c2ccc(Cl)c(Cl)c2)CCCO1 (centres unmarked) [Example 99]    30
5) OC(c1ccccn1)C1(c2cccc(C(F)(F)F)c2)CCCO1 (centres unmarked) [Example 107]    31

Need HUMAN MICROSOMAL STABILITY (% REMAINING AFTER 30 MINUTES) of O=C1CC(c2ccnc(C(F)(F)F)c2)(C(O)c2ccccn2)C1 (centres unmarked) [Example 298] , thanks.
80

Need HUMAN MICROSOMAL STABILITY (% REMAINING AFTER 30 MINUTES) of OC(C1CCc2cccnc21)C1(c2ccccc2OC(F)(F)F)CCC1 (centres unmarked) [Example 194] , thanks.
0.08

* * *

Readings of HUMAN […] (% REMAINING AFTER 30 MINUTES) for the listed compounds
- Assay: In vitro human microsomal stability assay
- Assay type: in vitro ADME
- Conditions Used: 0.5 μM substrate, 0.25 mg/mL microsomal protein, pH 7.4, 37° C., NADPH, 30 minutes
Give the value, in units of %, as a plain number.

Solved entries (count: 2):
1) O[C@H](c1ccccn1)[C@]1(c2cccc(C(F)(F)F)c2)C[C@H](O)C1 (relative stereo)    76
2) O[C@H](c1ccccn1)[C@]1(c2cccc(C(F)(F)F)c2)C[C@@H](O)C1 (relative stereo)    56

Turning now to a further compound:
Need HUMAN […] (% REMAINING AFTER 30 MINUTES) of C[C@]1(O)C[C@](c2cc(C(F)(F)F)ccn2)([C@H](O)c2ccccn2)C1 (relative stereo) , thanks.
83

* * *

Readings of RAT MICROSOMAL STABILITY (% REMAINING AFTER 30 MINUTES) for the listed compounds
- Assay: In vitro rat microsomal stability assay
- Format: in vitro ADME, rat (Sprague-Dawley)
- Conditions Used: Sprague-Dawley, rat, 0.5 h, 0.5 μM, pH 7.4
Give the value, in units of %, as a plain number.

1. OC(c1ccccn1)C1(c2cccc(Cl)c2)CCCO1 (stereo not shown) [Example 105]    0.040
2. OC(c1ccccn1)C1(c2ccc(Cl)c(Cl)c2)CCOCC1 (stereo not shown)    12
3. OC(c1ccccn1)C1(C2CCOCC2)CCC1 (stereo not shown)    0.072
4. O=C1CC(c2ccc(C(F)(F)F)cc2)(C(O)c2ccccn2)C1 (stereo not shown)    60
5. OC(c1ccccn1)C1(c2nc3ccccc3s2)CCC1 (stereo not shown)    0.14
6. Cc1ccc(CC2(C(O)c3ccccn3)CCC2)cc1 (stereo not shown)    0.05
7. ON=C1CC(c2ccc(OC(F)(F)F)cc2)([C@H](O)c2ccccn2)C1 (stereo partly shown)    29

Turning now to a further compound:
Need RAT MICROSOMAL STABILITY (% REMAINING AFTER 30 MINUTES) of CC(C)(C)OC(=O)N1CCC(C2(C(O)c3ccccn3)CCC2)C1 (stereo not shown) , thanks.
0.059

* * *

- Assay: In vitro rat microsomal stability assay
- Assay type: in vitro ADME, rat (Sprague-Dawley)
- Conditions Used: Sprague-Dawley, rat, 0.5 h, 0.5 μM, pH 7.4
Where RAT MICROSOMAL STABILITY (% REMAINING AFTER 30 MINUTES) equals or exceeds 0.4%, the correct label is Yes; where it does not, the label is No.

Illustrative cases are given below, each with its answer.
1. OC(CC1(c2cccc(OC(F)(F)F)c2)CCC1)c1ccccn1 (stereo not shown)    Yes
2. OC(c1ccccn1)C1(c2cccc(C(F)(F)F)c2)CCCO1 (stereo not shown) [Example 107]    No
3. OC(C1CCCc2cccnc21)C1(c2ccccc2OC(F)(F)F)CCC1 (stereo not shown) [Example 191]    No
4. OC(c1ccccn1)C1(C2CCCOC2)CCC1 (stereo not shown)    No
5. OC1CC(c2cc(C(F)(F)F)ccn2)([C@H](O)c2ccccn2)C1 (stereo partly shown)    Yes

Is RAT MICROSOMAL STABILITY (% REMAINING AFTER 30 MINUTES) for Cc1ccc(C2(C(O)c3ccccn3)CCC2)cc1 (stereo not shown) at or above 0.4%?
No

Is RAT MICROSOMAL STABILITY (% REMAINING AFTER 30 MINUTES) for CC1(O)CC(c2cccc(OC(F)(F)F)c2)(C(O)c2ccccn2)C1 (stereo not shown) at or above 0.4%?
Yes

Is RAT MICROSOMAL STABILITY (% REMAINING AFTER 30 MINUTES) for OC(c1ccccn1)C1(c2cccc(Cl)c2)CCCO1 (stereo not shown) [Example 104] at or above 0.4%?
Yes

Is RAT MICROSOMAL STABILITY (% REMAINING AFTER 30 MINUTES) for OC(C1CCc2cccnc21)C1(c2ccccc2C(F)(F)F)CCC1 (stereo not shown) [Example 197] at or above 0.4%?
No

Is RAT MICROSOMAL STABILITY (% REMAINING AFTER 30 MINUTES) for OC(C1CCCc2cccnc21)C1(c2cccc(OC(F)(F)F)c2)CCC1 (stereo not shown) [Example 188] at or above 0.4%?
No

Is RAT MICROSOMAL STABILITY (% REMAINING AFTER 30 MINUTES) for OC(C1CCc2cccnc21)C1(c2ccc(OC(F)(F)F)cc2)CCC1 (stereo not shown) [Example 175] at or above 0.4%?
No

Is RAT MICROSOMAL STABILITY (% REMAINING AFTER 30 MINUTES) for OC(CC1(c2cccc(C(F)(F)F)c2)CCC1)c1ccccn1 (stereo not shown) at or above 0.4%?
Yes

Is RAT MICROSOMAL STABILITY (% REMAINING AFTER 30 MINUTES) for OC(c1ccccn1)C1(C2CCCC2)CCC1 (stereo not shown) at or above 0.4%?
No

* * *

- Study System: human TRPV3 (Homo sapiens, UniProt Q8NET8)
- Construct: expressed in transfected cells
- Sequence (Q8NET8 1-790): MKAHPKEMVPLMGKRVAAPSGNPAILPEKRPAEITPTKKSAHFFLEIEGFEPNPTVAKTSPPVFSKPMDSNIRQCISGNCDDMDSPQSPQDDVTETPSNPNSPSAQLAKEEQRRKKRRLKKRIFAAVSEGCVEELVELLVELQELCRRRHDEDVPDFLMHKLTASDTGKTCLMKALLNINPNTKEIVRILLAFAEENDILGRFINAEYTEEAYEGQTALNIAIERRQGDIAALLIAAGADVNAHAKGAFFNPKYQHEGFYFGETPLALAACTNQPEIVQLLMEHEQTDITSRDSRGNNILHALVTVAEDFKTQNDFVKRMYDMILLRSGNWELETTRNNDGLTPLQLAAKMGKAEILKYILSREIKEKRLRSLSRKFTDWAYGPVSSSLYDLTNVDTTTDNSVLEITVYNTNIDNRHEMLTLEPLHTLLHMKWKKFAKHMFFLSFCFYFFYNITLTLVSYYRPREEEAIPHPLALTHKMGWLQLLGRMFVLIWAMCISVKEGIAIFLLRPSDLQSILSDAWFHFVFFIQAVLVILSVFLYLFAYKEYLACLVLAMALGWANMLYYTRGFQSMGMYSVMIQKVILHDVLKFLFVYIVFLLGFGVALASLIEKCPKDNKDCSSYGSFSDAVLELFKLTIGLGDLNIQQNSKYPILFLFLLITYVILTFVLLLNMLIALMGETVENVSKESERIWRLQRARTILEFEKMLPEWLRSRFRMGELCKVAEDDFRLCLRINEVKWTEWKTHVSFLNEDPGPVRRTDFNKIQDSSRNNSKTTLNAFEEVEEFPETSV
- Assay: In vitro antagonism of recombinant human TRPV3 activation (FLIPR Tetra calcium assay, 2-APB as agonist)
- Format: cell-based
- Conditions Used: HEK293 cells stably expressing human TRPV3; 2-APB 80 μM; range class; read-out: IC50 (reported range)
pIC50: −log10 of the molar value.
Readout: pIC50

# get_value(readout= pIC50, system= human TRPV3 (Homo sapiens, UniProt Q8NET8)) for OC(c1ccccn1)C1(c2ccc(C(F)(F)F)cn2)CCC1 (centres unmarked) [Example 115]
4.70 to 5.29

# get_value(readout= pIC50, system= human TRPV3 (Homo sapiens, UniProt Q8NET8)) for CC(C)(C)OC(=O)N1CC(c2ccc(C(F)(F)F)cc2)(C(O)c2ccccn2)C1 (centres unmarked) [Example 153]
4.70 to 5.29

# get_value(readout= pIC50, system= human TRPV3 (Homo sapiens, UniProt Q8NET8)) for N[C@H]1CCC[C@@H]1[C@H](O)C1(c2ccc(Cl)c(Cl)c2)CCC1 [Example 219]
5.30 to 5.96

# get_value(readout= pIC50, system= human TRPV3 (Homo sapiens, UniProt Q8NET8)) for O=C1CC(c2ccc(Cl)c(Cl)c2)([C@H](O)c2ccccn2)C1 [Example 117]
5.30 to 5.96

# get_value(readout= pIC50, system= human TRPV3 (Homo sapiens, UniProt Q8NET8)) for Cc1cccnc1[C@@H](O)C1(c2ccc(Cl)c(Cl)c2)CCC1 [Example 30]
5.30 to 5.96
